Origin of the recorded values: patent US10053427B2

# assay_method_text: Aqueous solubility measurement
# Assay type: physicochemical
# condition_label: thermodynamic from solid; deionized water, shaking ca. 24 h, ambient temperature (ca. 22° C.)
# Experimental: Each salt was individually slurried in deionized water and subjected to shaking for ca. 24 h at ambient temperature (ca. 22° C.). The resulting saturated solutions were filtered and analyzed by HPLC analysis. XRPD analysis was carried out on any solid retained after the solubility experiment.
// reported solubility at 24 h for each item listed
Supply the numeric figure in µg/mL, leaving out any unit text.

In [3]: df
Out[3]:
                                   compound  reading
0  COc1cc2nccc(Oc3ccc(NC(=O)C4(C(=O)Nc5ccc(F)cc5)CC4)cc3)c2cc1OC.Cl [Cabozantinib hydrochloride Form A-1]      210

According to the records, this compound COc1cc2nccc(Oc3ccc(NC(=O)C4(C(=O)Nc5ccc(F)cc5)CC4)cc3)c2cc1OC.O=P(O)(O)O [Cabozantinib phosphate Form A] displays solubility at 24 h of 90
